- experiment_description: Cmax in SPF ICR mouse at 25 mg/kg, po measured upto 24 hrs by HPLC analysis
- Assay type: ADME, organism-based
- Parameters: dose 25 mg/kg, route oral
- applied_conditions: in vivo
observed_property: Cmax (ng/mL)
Reply with just the number (in ng/mL).

Ask: Entry O=c1nc(N2CC3CCC2CN3Cc2ccc(F)cc2)sc2c([N+](=O)[O-])cc(C(F)(F)F)cc12 (stereo not drawn) has what Cmax?
Reply: 3040

Ask: Entry "O=c1nc(N2CCC3(CCN(c4ccc(F)cc4)C3)CC2)sc2c([N+](=O)[O-])cc(C(F)(F)F)cc12" has what Cmax?
Reply: 1610

Ask: Entry O=c1nc(N2CCN(CC3CCCCC3)CC2)sc2c([N+](=O)[O-])cc(C(F)(F)F)cc12 [MACOZINONE] has what Cmax?
Reply: 1750

====

- experiment_description: AUC (0 to t) in SPF ICR mouse at 25 mg/kg, po measured upto 24 hrs by HPLC analysis
- Type: ADME, organism-based
- Parameters: dose 25 mg/kg, time < 24 hr, route oral
- applied_conditions: in vivo
Could you please report measured AUC(0-t) at 24 h for the items listed next?
Reply with just the number (in ng·h/mL).

Ask: Entry O=c1nc(N2CC3CCC2CN3Cc2ccc(F)cc2)sc2c([N+](=O)[O-])cc(C(F)(F)F)cc12 (stereo not drawn) has what AUC(0-t) at 24 h?
Reply: 3550

Ask: Entry "O=c1nc(N2CCN(CC3CCCCC3)CC2)sc2c([N+](=O)[O-])cc(C(F)(F)F)cc12" has what AUC(0-t) at 24 h?
Reply: 2480

Ask: Entry "O=c1nc(N2CCC3(CCN(c4ccc(F)cc4)C3)CC2)sc2c([N+](=O)[O-])cc(C(F)(F)F)cc12" has what AUC(0-t) at 24 h?
Reply: 5030

====

- tested_target: hERG (KCNH2) (Homo sapiens, UniProt Q12809)
- Sequence (Q12809 whole entry): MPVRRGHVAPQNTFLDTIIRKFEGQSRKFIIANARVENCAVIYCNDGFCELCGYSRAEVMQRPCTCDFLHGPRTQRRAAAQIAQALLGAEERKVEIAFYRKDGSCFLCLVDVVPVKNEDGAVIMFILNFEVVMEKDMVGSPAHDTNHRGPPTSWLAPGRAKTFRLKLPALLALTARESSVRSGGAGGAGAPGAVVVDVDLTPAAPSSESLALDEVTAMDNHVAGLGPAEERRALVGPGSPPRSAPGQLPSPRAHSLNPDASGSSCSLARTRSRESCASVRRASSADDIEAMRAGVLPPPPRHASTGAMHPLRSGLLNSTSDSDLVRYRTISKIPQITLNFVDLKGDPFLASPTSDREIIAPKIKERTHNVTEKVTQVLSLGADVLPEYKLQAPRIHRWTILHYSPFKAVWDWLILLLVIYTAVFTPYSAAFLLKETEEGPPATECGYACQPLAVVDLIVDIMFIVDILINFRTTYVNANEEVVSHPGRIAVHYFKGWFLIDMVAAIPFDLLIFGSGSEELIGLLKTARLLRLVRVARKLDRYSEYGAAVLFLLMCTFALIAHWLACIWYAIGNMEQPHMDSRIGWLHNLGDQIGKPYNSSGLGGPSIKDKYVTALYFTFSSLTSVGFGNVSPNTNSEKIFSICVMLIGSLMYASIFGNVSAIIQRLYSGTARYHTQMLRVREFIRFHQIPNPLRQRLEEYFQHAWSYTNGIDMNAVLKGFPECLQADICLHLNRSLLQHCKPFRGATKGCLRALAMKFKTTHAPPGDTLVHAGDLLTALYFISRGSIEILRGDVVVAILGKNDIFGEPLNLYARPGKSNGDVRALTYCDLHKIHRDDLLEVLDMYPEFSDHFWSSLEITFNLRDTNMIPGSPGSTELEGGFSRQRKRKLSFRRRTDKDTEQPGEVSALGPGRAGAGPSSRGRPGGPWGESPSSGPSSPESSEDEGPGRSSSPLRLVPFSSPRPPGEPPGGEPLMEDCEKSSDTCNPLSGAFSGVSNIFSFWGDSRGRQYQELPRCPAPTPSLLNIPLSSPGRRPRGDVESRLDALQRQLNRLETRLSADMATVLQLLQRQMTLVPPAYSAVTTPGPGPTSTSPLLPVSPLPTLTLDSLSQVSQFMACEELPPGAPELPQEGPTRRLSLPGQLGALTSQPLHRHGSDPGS
- experiment_description: Inhibition of human ERG transfected in HEK293 cells at 10 uM by whole cell patch clamp assay relative to control
- Assay type: cell-based
- applied_conditions: HEK293 cells transfected with human ERG
inhibition at 10 µM below 80% gives no (0); inhibition at 10 µM at or above it gives yes (1).

Ask: API: above_or_equal(metric=inhibition at 10 µM, cutoff=80%) for item "O=c1nc(N2CCC3(CCN(Cc4cccc(F)c4F)C3)CC2)sc2c([N+](=O)[O-])cc(C(F)(F)F)cc12"
Reply: yes (1)

Ask: API: above_or_equal(metric=inhibition at 10 µM, cutoff=80%) for item O=c1nc(N2CC3CCC2CN3Cc2ccc(F)cc2)sc2c([N+](=O)[O-])cc(C(F)(F)F)cc12 (configuration not stated)
Reply: no (0)

Ask: API: above_or_equal(metric=inhibition at 10 µM, cutoff=80%) for item "O=c1nc(N2CCC3(CCN(Cc4ccc([N+](=O)[O-])c(Br)c4)C3)CC2)sc2c([N+](=O)[O-])cc(C(F)(F)F)cc12"
Reply: yes (1)

Ask: API: above_or_equal(metric=inhibition at 10 µM, cutoff=80%) for item "O=c1nc(N2CCC3(CCN(CCc4ccc(F)cc4)C3)CC2)sc2c([N+](=O)[O-])cc(C(F)(F)F)cc12"
Reply: yes (1)

Ask: API: above_or_equal(metric=inhibition at 10 µM, cutoff=80%) for item "O=c1nc(N2CCC3(CCN(Cc4cc(C(F)(F)F)cc(C(F)(F)F)c4)C3)CC2)sc2c([N+](=O)[O-])cc(C(F)(F)F)cc12"
Reply: yes (1)

Ask: API: above_or_equal(metric=inhibition at 10 µM, cutoff=80%) for item O=c1nc(N2CCN(CC3CCCCC3)CC2)sc2c([N+](=O)[O-])cc(C(F)(F)F)cc12 [MACOZINONE]
Reply: no (0)

Ask: API: above_or_equal(metric=inhibition at 10 µM, cutoff=80%) for item "O=c1nc(N2CCC3(CCN(Cc4ncco4)C3)CC2)sc2c([N+](=O)[O-])cc(C(F)(F)F)cc12"
Reply: no (0)
